Reference for the values: PubChem BioAssay (EPA / NIEHS)

Experiment: CCTE_Shafer_MEA_acute_burst_percentage_std: CCTE's Neural Acute Assay for Standard Deviation of Burst Percentage, Shafer Lab (AID 2284018);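 note: fitted in the negative direction so actives lower burst percentage SD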
The source made the active and inactive calls. Rule for the calls: active = hit-call score of the fitted dose curve at least 0.9, where 1 is the maximum; inactive = score below 0.9.
Outcome codes: active, inactive

# Compound, Label
measured = [
    ("O=C(Nc1ccc2[nH]ccc2c1)c1cc2cc(F)ccc2n1Cc1cccc(F)c1", "inactive"),
    ("CC(=O)OC(c1ccccc1)C(Cl)(Cl)Cl (stereo not given)", "inactive"),
    ("CCC(=O)C(CC(C)N(C)C)(c1ccccc1)c1ccccc1 (stereo not given)", "inactive"),
    ("C[C@]12CCC(=O)C[C@@H]1CC[C@@H]1[C@@H]2CC[C@]2(C)[C@@H](O)CC[C@@H]12", "active"),
    ("COC(=O)Cc1ccccc1", "inactive"),
    ("CCN1CCC2(CC1)COc1cc3c(cc12)N(C(=O)c1ccc(-c2ccc(-c4nnc(C)o4)cc2C)cc1)CC3", "inactive"),
    ("CCCCCCCCc1ccc(O)cc1", "active"),
    ("C=C(C)C(=O)[O][Sn]([CH2]CCC)([CH2]CCC)[CH2]CCC", "active"),
    ("CC(C)(c1ccccc1)c1ccc(O)c(C(C)(C)c2ccccc2)c1", "active"),
    ("CC(C)(C)c1cc(O)ccc1O", "inactive"),
]

----------
Tested on: Sodium/Iodide Symporter (NIS), SLC5A5 (gene 6528)
Experiment: CPHEA_Stoker_NIS_Inhibition_RAIU: CPHEA's Radioactive Iodide Uptake (RAIU) Assay for Sodium/Iodide Symporter (NIS) Inhibition, Stoker and Laws Labs (AID 2283841)
Inconclusive results are not listed. Calls of active or inactive are those of the source. How the source made its calls: active means hit-call score of the fitted dose curve at least 0.9, where 1 is the maximum; inconclusive means response in the unintended direction; inactive means score below 0.9.
Outcome codes: yes (1) (active), no (0) (inactive)

# Molecule, Measured on, Label
data = [
    ("O=C(OC1CCCCC1)c1ccccc1C(=O)OC1CCCCC1", "Sodium/Iodide Symporter (NIS), SLC5A5 (gene 6528)", "no (0)"),
    ("O=S(=O)(c1ccc(Cl)cc1)c1ccc(Cl)cc1", "Sodium/Iodide Symporter (NIS), SLC5A5 (gene 6528)", "yes (1)"),
    ("CC(C)(C)CC(C)(C)c1ccc(O)cc1", "Sodium/Iodide Symporter (NIS), SLC5A5 (gene 6528)", "no (0)"),
    ("COP(=O)(OC)O/C(=C\\Cl)c1cc(Cl)c(Cl)cc1Cl", "Sodium/Iodide Symporter (NIS), SLC5A5 (gene 6528)", "no (0)"),
    ("CC(C)c1cccc(C(C)C)c1O", "Sodium/Iodide Symporter (NIS), SLC5A5 (gene 6528)", "no (0)"),
    ("O=C(O)C(F)(F)C(F)(F)C(F)(F)C(F)(F)C(F)(F)C(F)(F)F", "Sodium/Iodide Symporter (NIS), SLC5A5 (gene 6528)", "no (0)"),
    ("CCC(C)(C)c1ccc(O)c(C(C)(C)CC)c1", "Sodium/Iodide Symporter (NIS), SLC5A5 (gene 6528)", "no (0)"),
    ("CC(C)C1CCC(Cc2ccc(Cl)cc2)C1(O)Cn1cncn1 (configuration not stated)", "Sodium/Iodide Symporter (NIS), SLC5A5 (gene 6528)", "yes (1)"),
    ("CC(=O)[O][Hg][c]1ccccc1", "Sodium/Iodide Symporter (NIS), SLC5A5 (gene 6528)", "yes (1)"),
    ("CC(C)(c1ccc(OCC2CO2)cc1)c1ccc(OCC2CO2)cc1 (configuration not stated)", "Sodium/Iodide Symporter (NIS), SLC5A5 (gene 6528)", "no (0)"),
    ("Clc1ccc(COC(Cn2ccnc2)c2ccc(Cl)cc2Cl)cc1 (configuration not stated)", "Sodium/Iodide Symporter (NIS), SLC5A5 (gene 6528)", "yes (1)"),
    ("O=C(O)CCC(F)(C(F)(F)F)C(F)(F)F", "Sodium/Iodide Symporter (NIS), SLC5A5 (gene 6528)", "no (0)"),
    ("O=[N+]([O-])c1ccc(O)c([N+](=O)[O-])c1", "Sodium/Iodide Symporter (NIS), SLC5A5 (gene 6528)", "no (0)"),
    ("CCC[CH2][Sn]([CH2]CCC)([CH2]CCC)[O]C(=O)c1ccccc1", "Sodium/Iodide Symporter (NIS), SLC5A5 (gene 6528)", "yes (1)"),
    ("O=C1C(Cl)=C(Cl)C(=O)c2ccccc21", "Sodium/Iodide Symporter (NIS), SLC5A5 (gene 6528)", "yes (1)"),
    ("O=C(Nc1ccc2[nH]ccc2c1)c1cc2cc(F)ccc2n1Cc1cccc(F)c1", "Sodium/Iodide Symporter (NIS), SLC5A5 (gene 6528)", "no (0)"),
    ("COP(=S)(OC)Oc1ccc(Sc2ccc(OP(=S)(OC)OC)cc2)cc1", "Sodium/Iodide Symporter (NIS), SLC5A5 (gene 6528)", "no (0)"),
    ("CC1(C)Cc2cccc(O)c2O1", "Sodium/Iodide Symporter (NIS), SLC5A5 (gene 6528)", "no (0)"),
    ("NNC(=S)NN", "Sodium/Iodide Symporter (NIS), SLC5A5 (gene 6528)", "no (0)"),
    ("Fc1ccc(C2(Cn3cncn3)OC2c2ccccc2Cl)cc1 (configuration not stated)", "Sodium/Iodide Symporter (NIS), SLC5A5 (gene 6528)", "no (0)"),
    ("Cc1ccccc1C(=O)Nc1cccc(OC(C)C)c1", "Sodium/Iodide Symporter (NIS), SLC5A5 (gene 6528)", "no (0)"),
    ("O=C1C2(Cl)C3(Cl)C4(Cl)C(Cl)(Cl)C5(Cl)C3(Cl)C1(Cl)C5(Cl)C24Cl (configuration not stated)", "Sodium/Iodide Symporter (NIS), SLC5A5 (gene 6528)", "no (0)"),
    ("[O-][Cl+2]([O-])O", "Sodium/Iodide Symporter (NIS), SLC5A5 (gene 6528)", "no (0)"),
    ("CC(C)(c1ccccc1)c1ccc(O)c(C(C)(C)c2ccccc2)c1", "Sodium/Iodide Symporter (NIS), SLC5A5 (gene 6528)", "no (0)"),
    ("O=C(NCO)NCO", "Sodium/Iodide Symporter (NIS), SLC5A5 (gene 6528)", "no (0)"),
    ("CCCCCCCCSC(=O)Oc1cc(Cl)nnc1-c1ccccc1", "Sodium/Iodide Symporter (NIS), SLC5A5 (gene 6528)", "no (0)"),
    ("Cc1ccc2ccccc2c1C", "Sodium/Iodide Symporter (NIS), SLC5A5 (gene 6528)", "no (0)"),
]
